protocol-summary: human hepatoma cell viability loss – ATP luminescence, cytotoxicity control for P. falciparum antimalarial project, primary screen (AID 2303);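 note: 0% = DMSO wells and 100% = digitonin-killed cells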
condition: HepG2 viability, 24-48 h, at 10 µM
Active and inactive are the calls of the source.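 Rule for the calls: active = inhibition above 50%; inactive = the rest.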
Labels: label 1 for active, label 0 for inactive

>>> label_class("CN(C)CCNc1cc(-c2cccnc2)nc(-c2ccncc2)n1")
"label 0"
>>> label_class("COc1ccc2c(NN=Cc3ccc([N+](=O)[O-])cc3)ccnc2c1")
"label 0"
>>> label_class("CCCC(C)Nc1nc(C)cc(N[C@@H](Cc2ccccc2)C(=O)NCCOc2ccccc2)n1 (stereo partly specified)")
"label 0"
>>> label_class("COc1ccccc1C1CN(Cc2coc3ccccc3c2=O)Cc2ccccc2O1 (stereo unspecified)")
"label 0"
>>> label_class("CN1CCCN(Cc2cccc(-c3cccc(NC(=O)c4cccc(Cl)c4)c3)c2)CC1")
"label 0"
>>> label_class("Nc1c2c(nc3ccc(NC(=O)CCCc4ccccc4)cc13)CCCC2")
"label 1"
>>> label_class("CNc1nc(NN=Cc2cc([N+](=O)[O-])c(Cl)cc2Cl)nc(Nc2cccc(C(F)(F)F)c2)n1")
"label 0"
>>> label_class("O=[N+]([O-])c1ccc(-n2nc(Cc3ccccc3)n(Cc3cccc(F)c3)c2=S)c(C(F)(F)F)c1")
"label 0"
>>> label_class("OCC1CCN(Cc2cccc(-c3ccc(-c4nc5ccc(C(F)(F)F)cc5[nH]4)s3)c2)CC1")
"label 0"
>>> label_class("CCCc1cc(Cc2cnc(N)nc2N)cc(CC)c1O")
"label 1"
>>> label_class("O=C(NCCc1cccc(Cl)c1Cl)c1cnc(N2CCN(c3ccncc3)CC2)c(Cl)c1")
"label 0"
>>> label_class("CN(C)c1cccc2c(S(=O)(=O)Nc3cccc(CCN4CCC(N5CCCCC5)CC4)c3)cccc12")
"label 0"
>>> label_class("Cc1ccc(NC(=O)N2CCCN(CCCCCNC(=O)/C=C/c3ccc(Cl)c(Cl)c3)CC2)cc1C")
"label 1"
>>> label_class("CCNc1cc(C(=O)N[C@@H](Cc2ccccc2)[C@H](O)CNC(C)(C)Cc2cccc(Cl)c2)cc(N2CCCCS2(=O)=O)c1")
"label 0"
>>> label_class("COc1cccc2c(NN=Cc3ccc(Cl)cc3)ccnc12")
"label 0"
>>> label_class("CCCC1N=C(N)N=C(N)N1c1cccc(C(F)(F)F)c1 (stereo unspecified)")
"label 0"
>>> label_class("CC(C)(C)c1ccc(CNCC(C)(C)c2nc(-c3ccc(Cl)c(O)c3)c(-c3ccnc(N)n3)[nH]2)cc1")
"label 0"
>>> label_class("Fc1cc(Cl)ccc1Nc1ccnc2cc(I)ccc12")
"label 0"
>>> label_class("Cc1cc2ncn(-c3nccc(NCc4cccnc4)n3)c2cc1C")
"label 0"
>>> label_class("NC(CC1CC(=O)N1CC(=O)O)C(=O)O (stereo unspecified)")
"label 1"
>>> label_class("CN(C)CCCNCc1ccc(-c2ccc(F)c(Cl)c2)o1")
"label 0"

// data source = PubChem BioAssay
